target: Vps34 enzyme (Homo sapiens (Human)); assay: Vps34 Biochemical Assay (Adapta kinase assay, TR-FRET); details: 20 μM ATP and 200 μM PI:PS in substrate mix, 1 h at room temperature, read-out: Median IC50 nM Adapta
Entries and their measured IC50 follow.

### Prompt Item O=c1cc(-c2ccnc3[nH]ccc23)cc(N2CCCC2c2ccccc2)[nH]1 (stereo not shown) [Example 8] : provide IC50
### Response 10 nM

### Prompt For the molecule CS(=O)(=O)N1CCN(c2cc(-c3ccnc4[nH]ncc34)cc(=O)[nH]2)C(C(F)(F)F)C1 (stereo not shown) [Example 88] , give its measured IC50 value.
### Response < 5 nM

### Prompt Assign IC50 to the following record: Cc1cc2c(-c3cc(-c4cccnc4)[nH]c(=O)c3)ccnc2[nH]1 [Example 12]
### Response 24 nM

### Prompt Tell me its IC50 given Cc1cnccc1-c1cc(-c2ccnc3[nH]ccc23)cc(=O)[nH]1 [Example 6] as the entry.
### Response 20 nM

### Prompt Answer with the recorded IC50 for the molecule listed here: O=c1cc(-c2ccnc3[nH]ncc23)cc(N2CCCCC2C(F)(F)F)[nH]1 (stereo not shown) [Example 49]
### Response < 5 nM

### Prompt Please list IC50 recorded for the molecule O=c1cc(-c2ccnc3[nH]c(-c4ccc(C(F)(F)F)nc4)cc23)cc(N2CCCCC2C(F)(F)F)[nH]1 (stereo not shown) [Example 55]
### Response < 5 nM

### Prompt Specify measured IC50 for O=c1cc(-c2ccnc3[nH]ccc23)cc(N2CCN(S(=O)(=O)Cc3ccc(F)cc3)CC2C(F)(F)F)[nH]1 (stereo not shown) [Example 65] .
### Response < 5 nM

### Prompt Answer with the recorded IC50 of O=c1cc(-c2ccnc3[nH]c(C4CC4)cc23)cc(-c2ccccc2C(F)(F)F)[nH]1 [Example 79] only.
### Response < 5 nM

### Prompt Please indicate IC50 recorded for O=c1cc(-c2ccnc3[nH]c(-c4cccc(C(F)(F)F)c4)cc23)cc(N2CCOCC2C(F)(F)F)[nH]1 (stereo not shown) [Example 45]
### Response 34 nM

### Prompt Supply reported IC50 belonging to this molecule: O=c1cc(-c2ccnc3[nH]c(-c4cnc(C(F)(F)F)nc4)cc23)cc(N2CCCCC2C(F)(F)F)[nH]1 (stereo not shown) [Example 52]
### Response < 5 nM

###

biological target: Vps34 enzyme (Homo sapiens (Human), UniProt Q8NEB9); test: Vps34 Biochemical Assay (Adapta kinase assay, TR-FRET); settings: 20 μM ATP and 200 μM PI:PS in substrate mix, 1 h at room temperature, read-out: Median IC50 nM Adapta
Sequence (Q8NEB9 whole entry): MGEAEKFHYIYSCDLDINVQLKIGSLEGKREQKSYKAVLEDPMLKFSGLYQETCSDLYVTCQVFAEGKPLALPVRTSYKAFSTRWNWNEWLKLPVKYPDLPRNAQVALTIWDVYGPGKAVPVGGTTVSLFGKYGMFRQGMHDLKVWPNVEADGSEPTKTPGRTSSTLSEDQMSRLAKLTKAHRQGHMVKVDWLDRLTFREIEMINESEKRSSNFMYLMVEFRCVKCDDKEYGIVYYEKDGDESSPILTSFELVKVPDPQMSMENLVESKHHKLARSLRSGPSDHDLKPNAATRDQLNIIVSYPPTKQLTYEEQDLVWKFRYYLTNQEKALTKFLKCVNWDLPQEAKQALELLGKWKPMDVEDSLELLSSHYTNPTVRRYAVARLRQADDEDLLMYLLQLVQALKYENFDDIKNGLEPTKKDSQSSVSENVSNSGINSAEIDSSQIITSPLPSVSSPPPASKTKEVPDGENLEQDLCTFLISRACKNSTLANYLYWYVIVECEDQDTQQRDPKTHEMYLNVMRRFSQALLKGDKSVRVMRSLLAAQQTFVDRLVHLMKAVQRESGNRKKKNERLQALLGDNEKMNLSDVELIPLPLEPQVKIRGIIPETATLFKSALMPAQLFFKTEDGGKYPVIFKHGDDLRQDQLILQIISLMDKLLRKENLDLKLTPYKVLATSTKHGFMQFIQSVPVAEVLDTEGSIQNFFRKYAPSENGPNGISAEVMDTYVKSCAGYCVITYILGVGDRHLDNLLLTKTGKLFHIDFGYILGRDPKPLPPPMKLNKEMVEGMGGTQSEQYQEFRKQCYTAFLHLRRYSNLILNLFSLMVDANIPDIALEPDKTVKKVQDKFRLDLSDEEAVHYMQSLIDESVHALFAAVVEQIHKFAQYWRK
endpoint-name: IC50

Below, each entry is followed by its recorded IC50 result.
Cc1cc2c(-c3cc(-c4ccccc4Cl)[nH]c(=O)c3)ccnc2[nH]1 | < 5 nM
O=c1cc(-c2ccnc3[nH]c(-c4cncc(C(F)(F)F)c4)cc23)cc(N2CCCCC2C(F)(F)F)[nH]1 (centres unmarked) | 7 nM
CCS(=O)(=O)N1CCN(c2cc(-c3ccnc4[nH]c(C)cc34)cc(=O)[nH]2)C(C(F)(F)F)C1 (centres unmarked) | < 5 nM

Here is another molecule to look at.
### Prompt Quick one: give measured IC50 for Cc1cc2c(-c3cc(N4CCOCC4)[nH]c(=O)c3)ccnc2[nH]1
### Response 12 nM
